System: P-glycoprotein (Mdr1a/Mdr1b) in isolated perfused mouse lung
EXPERIMENT NOTES: Isolated perfused mouse lung (IPML) airway-to-perfusate absorption, Mdr1a/1b (+/+) vs (−/−)
RUN PARAMETERS: male, mouse, 30 min, 50 μM
Known Mdr1a/1b (+/+) % Deposited Dose absorbed of a selection of compounds

COMPOUND	Mdr1a/1b (+/+) % Deposited Dose absorbed
CN1CCC[C@@H]1Cc1c[nH]c2ccc(CCS(=O)(=O)c3ccccc3)cc12	17.9%
O=C1c2c(O)ccc(O)c2C(=O)c2c(NCCNCCO)ccc(NCCNCCO)c21	25.1%

Now let's try a different one.
Prompt line: // returns reported Mdr1a/1b (+/+) % Deposited Dose absorbed for input OCc1cc(C(O)CNCCCCCCOCCCCc2ccccc2)ccc1O (stereo not drawn)
Response line: 36.7%

###

System: P-glycoprotein (Mdr1a/Mdr1b) in isolated perfused mouse lung
EXPERIMENT NOTES: Isolated perfused mouse lung (IPML) airway-to-perfusate absorption, Mdr1a/1b (+/+) vs (−/−)
RUN PARAMETERS: male, mouse, 30 min, 50 μM
Rule: Mdr1a/1b (-/-) % Deposited Dose absorbed under 40% gives False, otherwise True.

MOLECULE	TESTED ON	CATEGORY
CN1CCC[C@@H]1Cc1c[nH]c2ccc(CCS(=O)(=O)c3ccccc3)cc12 [Eletriptan, eletriptan]	P-glycoprotein (Mdr1a/Mdr1b) in isolated perfused mouse lung	False
CC(C)(C)NC(=O)[C@@H]1C[C@@H]2CCCC[C@@H]2CN1C[C@@H](O)[C@H](Cc1ccccc1)NC(=O)[C@H](CC(N)=O)NC(=O)c1ccc2ccccc2n1 [Saquinavir, saquinavir]	P-glycoprotein (Mdr1a/Mdr1b) in isolated perfused mouse lung	False
O=C1c2c(O)ccc(O)c2C(=O)c2c(NCCNCCO)ccc(NCCNCCO)c21 [Mitoxantrone, mitoxantrone]	P-glycoprotein (Mdr1a/Mdr1b) in isolated perfused mouse lung	False

Prompt line: hey, is Mdr1a/1b (-/-) % Deposited Dose absorbed for this one >= 40%? OCc1cc(C(O)CNCCCCCCOCCCCc2ccccc2)ccc1O (centres unmarked) [Salmeterol, salmeterol]
Response line: True

Prompt line: Please check the record C[C@H]1O[C@@H](O[C@H]2[C@@H](O)C[C@H](O[C@H]3[C@@H](O)C[C@H](O[C@H]4CC[C@@]5(C)[C@H](CC[C@@H]6[C@@H]5C[C@@H](O)[C@]5(C)[C@@H](C7=CC(=O)OC7)CC[C@]65O)C4)O[C@@H]3C)O[C@@H]2C)C[C@H](O)[C@@H]1O [Digoxin, digoxin] and state if its Mdr1a/1b (-/-) % Deposited Dose absorbed is at or above 40%.
Response line: True

Prompt line: Check the entry COc1ccc(C[C@H](N)C(=O)N[C@H]2[C@@H](O)[C@H](n3cnc4c(N(C)C)ncnc43)O[C@@H]2CO)cc1 [Puromycin, puromycin] : does Mdr1a/1b (-/-) % Deposited Dose absorbed equal or exceed 40%?
Response line: True

Prompt line: For this molecule, is measured Mdr1a/1b (-/-) % Deposited Dose absorbed 40% or higher? CCc1cc2c(cc1CC)CC(NC[C@H](O)c1ccc(O)c3[nH]c(=O)ccc13)C2 [Indacaterol, indacaterol]
Response line: False

Prompt line: Please check the record CC[C@H]1OC(=O)[C@H](C)[C@@H](O[C@H]2C[C@@](C)(OC)[C@@H](O)[C@H](C)O2)[C@H](C)[C@@H](O[C@@H]2O[C@H](C)C[C@H](N(C)C)[C@H]2O)[C@](C)(O)C[C@@H](C)C(=O)[C@H](C)[C@@H](O)[C@]1(C)O [Erythromycin, erythromycin] and state if its Mdr1a/1b (-/-) % Deposited Dose absorbed is at or above 40%.
Response line: True

###

A collection of molecules and their measured MLV Partitioning
EXPERIMENT NOTES: Multi-lamellar liposome vesicle (MLV) partitioning
Assay type: physicochemical
RUN PARAMETERS: (C0−CS)/C0, 1 μg/mL, 4 h, 37°C, PBS pH 7.4
Form rule: numeric answer, no unit written next to it.

MOLECULE	OBSERVED MEASUREMENT
O=C1c2c(O)ccc(O)c2C(=O)c2c(NCCNCCO)ccc(NCCNCCO)c21	0.59

Prompt line: Entry OCc1cc(C(O)CNCCCCCCOCCCCc2ccccc2)ccc1O (stereo not drawn) : reported MLV Partitioning = ?
Response line: 0.80

Prompt line: Query (molecule): C[C@H]1O[C@@H](O[C@H]2[C@@H](O)C[C@H](O[C@H]3[C@@H](O)C[C@H](O[C@H]4CC[C@@]5(C)[C@H](CC[C@@H]6[C@@H]5C[C@@H](O)[C@]5(C)[C@@H](C7=CC(=O)OC7)CC[C@]65O)C4)O[C@@H]3C)O[C@@H]2C)C[C@H](O)[C@@H]1O ; field requested: MLV Partitioning
Response line: 0.30

Prompt line: Any idea what its MLV Partitioning is? The molecule is CC(C)(C)NC(=O)[C@@H]1C[C@@H]2CCCC[C@@H]2CN1C[C@@H](O)[C@H](Cc1ccccc1)NC(=O)[C@H](CC(N)=O)NC(=O)c1ccc2ccccc2n1
Response line: 0.45

Prompt line: Request the reported MLV Partitioning associated with CC(C)(C)NCC(O)c1ccc(O)c(CO)c1 (stereo not drawn)
Response line: 0.88

Prompt line: Which value of MLV Partitioning has been reported for COc1ccc(C[C@H](N)C(=O)N[C@H]2[C@@H](O)[C@H](n3cnc4c(N(C)C)ncnc43)O[C@@H]2CO)cc1 in the records?
Response line: 0.62

###

TESTED ON: mouse Mdr1b (Mus musculus, UniProt P06795)
Sequence (P06795 whole entry): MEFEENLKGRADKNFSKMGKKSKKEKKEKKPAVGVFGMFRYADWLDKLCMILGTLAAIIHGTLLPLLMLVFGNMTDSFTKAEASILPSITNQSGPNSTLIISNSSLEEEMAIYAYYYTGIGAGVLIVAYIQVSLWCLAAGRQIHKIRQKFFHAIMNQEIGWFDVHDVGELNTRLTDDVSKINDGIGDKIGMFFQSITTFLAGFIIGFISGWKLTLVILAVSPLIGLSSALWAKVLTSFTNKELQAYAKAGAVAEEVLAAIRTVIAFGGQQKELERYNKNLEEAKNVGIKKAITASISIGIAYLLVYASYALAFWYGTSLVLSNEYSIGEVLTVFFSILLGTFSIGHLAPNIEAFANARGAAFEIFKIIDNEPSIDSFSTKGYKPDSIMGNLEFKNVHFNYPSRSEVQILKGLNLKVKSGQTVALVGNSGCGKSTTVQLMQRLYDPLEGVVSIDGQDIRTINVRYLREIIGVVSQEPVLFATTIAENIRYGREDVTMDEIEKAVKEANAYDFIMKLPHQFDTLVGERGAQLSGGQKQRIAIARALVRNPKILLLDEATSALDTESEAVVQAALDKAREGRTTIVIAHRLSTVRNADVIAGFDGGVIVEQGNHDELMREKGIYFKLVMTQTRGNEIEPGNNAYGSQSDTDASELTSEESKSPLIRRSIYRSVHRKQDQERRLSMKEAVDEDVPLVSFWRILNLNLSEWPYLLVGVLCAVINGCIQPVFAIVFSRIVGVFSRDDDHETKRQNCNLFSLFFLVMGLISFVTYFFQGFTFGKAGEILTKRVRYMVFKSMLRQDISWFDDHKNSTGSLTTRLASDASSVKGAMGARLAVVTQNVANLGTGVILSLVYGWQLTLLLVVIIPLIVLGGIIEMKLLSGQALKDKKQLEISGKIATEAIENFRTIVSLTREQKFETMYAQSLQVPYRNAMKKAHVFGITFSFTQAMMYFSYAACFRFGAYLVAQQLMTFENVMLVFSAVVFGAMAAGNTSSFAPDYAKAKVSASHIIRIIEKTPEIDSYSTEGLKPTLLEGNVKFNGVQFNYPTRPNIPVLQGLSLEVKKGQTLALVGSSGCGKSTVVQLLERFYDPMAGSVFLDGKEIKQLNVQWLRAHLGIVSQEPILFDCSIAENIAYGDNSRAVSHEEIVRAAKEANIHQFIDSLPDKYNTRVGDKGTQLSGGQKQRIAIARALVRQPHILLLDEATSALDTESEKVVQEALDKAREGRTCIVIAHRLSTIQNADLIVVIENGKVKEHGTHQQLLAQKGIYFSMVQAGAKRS
EXPERIMENT NOTES: Gentest ABC transporter membrane ATPase assay
RUN PARAMETERS: 0–300 μM, 30 min, 37°C
Assign labels as follows, please: true for Vmax below 40 µM/min; false for Vmax equal to or exceeding 40 µM/min.

COMPOUND	CATEGORY
CC[C@@]1([C@@H]2O[C@@H]([C@H]3O[C@@](O)(CO)[C@H](C)C[C@@H]3C)C[C@@H]2C)CC[C@H]([C@]2(C)CC[C@]3(C[C@H](O)[C@@H](C)[C@@H]([C@@H](C)[C@@H](OC)[C@H](C)C(=O)O)O3)O2)O1	false
C[C@H]1O[C@@H](O[C@H]2[C@@H](O)C[C@H](O[C@H]3[C@@H](O)C[C@H](O[C@H]4CC[C@@]5(C)[C@H](CC[C@@H]6[C@@H]5C[C@@H](O)[C@]5(C)[C@@H](C7=CC(=O)OC7)CC[C@]65O)C4)O[C@@H]3C)O[C@@H]2C)C[C@H](O)[C@@H]1O	false
COC(=O)c1ccccc1-c1c2ccc(=N)cc-2oc2cc(N)ccc12.Cl	true
COc1ccc(C[C@H](N)C(=O)N[C@H]2[C@@H](O)[C@H](n3cnc4c(N(C)C)ncnc43)O[C@@H]2CO)cc1	true
OCc1cc(C(O)CNCCCCCCOCCCCc2ccccc2)ccc1O (centres unmarked)	true

Prompt line: I'd appreciate it if you could check whether COc1cc2c(c(OC)c1OC)-c1ccc(OC)c(=O)cc1[C@@H](NC(C)=O)CC2 has Vmax smaller than 40 µM/min.
Response line: true

Prompt line: Below 40 µM/min on Vmax? Entry O=C1c2c(O)ccc(O)c2C(=O)c2c(NCCNCCO)ccc(NCCNCCO)c21
Response line: true

Prompt line: Dear colleague, could you confirm whether Vmax of CC(C)(C)NCC(O)c1ccc(O)c(CO)c1 (centres unmarked) falls below 40 µM/min? Thanks.
Response line: false

###

System: P-glycoprotein (Mdr1a/Mdr1b) in isolated perfused mouse lung
EXPERIMENT NOTES: Isolated perfused mouse lung (IPML) airway-to-perfusate absorption, Mdr1a/1b (+/+) vs (−/−)
PARAMETER: Group (impact of Mdr1a/1b knockout on IPML absorption)

As a guide, the following entries are already answered.
COMPOUND	TESTED ON	OBSERVED MEASUREMENT
O=C1c2c(O)ccc(O)c2C(=O)c2c(NCCNCCO)ccc(NCCNCCO)c21	P-glycoprotein (Mdr1a/Mdr1b) in isolated perfused mouse lung	GROUP A
OCc1cc(C(O)CNCCCCCCOCCCCc2ccccc2)ccc1O (centres unmarked)	P-glycoprotein (Mdr1a/Mdr1b) in isolated perfused mouse lung	GROUP B
CN1CCC[C@@H]1Cc1c[nH]c2ccc(CCS(=O)(=O)c3ccccc3)cc12	P-glycoprotein (Mdr1a/Mdr1b) in isolated perfused mouse lung	GROUP B
COc1ccc(C[C@H](N)C(=O)N[C@H]2[C@@H](O)[C@H](n3cnc4c(N(C)C)ncnc43)O[C@@H]2CO)cc1	P-glycoprotein (Mdr1a/Mdr1b) in isolated perfused mouse lung	GROUP A
CC[C@@]1([C@@H]2O[C@@H]([C@H]3O[C@@](O)(CO)[C@H](C)C[C@@H]3C)C[C@@H]2C)CC[C@H]([C@]2(C)CC[C@]3(C[C@H](O)[C@@H](C)[C@@H]([C@@H](C)[C@@H](OC)[C@H](C)C(=O)O)O3)O2)O1	P-glycoprotein (Mdr1a/Mdr1b) in isolated perfused mouse lung	GROUP A
CC[C@H]1OC(=O)[C@H](C)[C@@H](O[C@H]2C[C@@](C)(OC)[C@@H](O)[C@H](C)O2)[C@H](C)[C@@H](O[C@@H]2O[C@H](C)C[C@H](N(C)C)[C@H]2O)[C@](C)(O)C[C@@H](C)C(=O)[C@H](C)[C@@H](O)[C@]1(C)O	P-glycoprotein (Mdr1a/Mdr1b) in isolated perfused mouse lung	GROUP A

Prompt line: Returns the measured Group (impact of Mdr1a/1b knockout on IPML absorption) for the input compound. Input: CC(C)(C)NCC(O)c1ccc(O)c(CO)c1 (centres unmarked)
Response line: GROUP B

Prompt line: Quick one: Group (impact of Mdr1a/1b knockout on IPML absorption) for CCc1cc2c(cc1CC)CC(NC[C@H](O)c1ccc(O)c3[nH]c(=O)ccc13)C2 ?
Response line: GROUP B
